- System: CCRIS mutagenicity, Ames/micronucleus/aberration tests
- assay-info: CCRIS mutagenicity studies
- particulars: Test System: AMES SALMONELLA TYPHIMURIUM; Strain/Indicator: TA102; Metabolic Activation: RAT, LIVER, S-9, PCB; Method: PREINCUBATION (5 OR 7 HR GROWTH PERIOD FOR BACTERIA)
Calls of active or inactive are those of the source. How the calls were made is not given here.
Hello, when you answer, please use one of the following outcomes: active, inactive

[[record]]
mol_smiles = "O=C(O)C(=O)O"
label_class = "inactive"

[[record]]
mol_smiles = "CCCNNCCC"
label_class = "active"

[[record]]
mol_smiles = "CCCN(N)CCC"
label_class = "inactive"


Okay, now this compound:
Data request: Per the records of this test, what outcome belongs to "CCNNCC" ?
Data returned: inactive

###

- Tested on: CCRIS mutagenicity, Ames/micronucleus/aberration tests
- assay-info: CCRIS mutagenicity studies
- particulars: Test System: AMES SALMONELLA TYPHIMURIUM; Strain/Indicator: TA102; Metabolic Activation: RAT LIVER S-9, AROCLOR 1254; Method: STANDARD PLATE
Active and inactive are the calls of the source. No rule for the calls is given here.
The categories you may choose from are YES for active, NO for inactive

[[record]]
molecule = "COC1=CC(=O)c2c(nc(C)c3c2[nH]c2ccncc23)C1=O"
label_class = "YES"


Data request: Hello, I am checking results. What call was entered for "Cc1cc(C)c(C)c(C)c1" ?
Data returned: NO

###

- Tested on: CCRIS mutagenicity, Ames/micronucleus/aberration tests
- assay-info: CCRIS mutagenicity studies
- particulars: Test System: AMES SALMONELLA TYPHIMURIUM; Strain/Indicator: TA100; Metabolic Activation: RAT, LIVER, S-9, AROCLOR 1254; Method: STANDARD PLATE
The source made the active and inactive calls. How the calls were made is not given here.
Your reply should match one of these outcome classes. yes = active, no = inactive

See these solved cases before continuing.
[[record]]
compound = "CC(=O)ON(C(C)=O)c1ccccc1C"
label_class = "no"

[[record]]
compound = "COc1cccc2c1cc([N+](=O)[O-])c1c(C(=O)O)cc3c(c12)OCO3"
label_class = "yes"


Data request: Lab log entry: C1=C/CCC2OC2CC/C=C/CC/1 (stereo not given) — outcome as called in the assay?
Data returned: no

Data request: Next compound: "COC1=CC(=O)C(=O)C(C(C)(C)C)=C1"
Data returned: no

###

- System: CCRIS mutagenicity, Ames/micronucleus/aberration tests
- assay-info: CCRIS mutagenicity studies
- particulars: Test System: AMES SALMONELLA TYPHIMURIUM; Strain/Indicator: TA100; Metabolic Activation: NONE; Method: STANDARD PLATE
The source made the active and inactive calls. No rule for the calls is given here.
The reply should name one outcome from 1.0 (active), 0.0 (inactive)

Observe how each entry below is paired with its result.
[[record]]
molecule = "COc1ccc(N(CCCl)CCCl)c2cc([N+](=O)[O-])oc12"
label_class = 1.0

[[record]]
molecule = "CN(C)N"
label_class = 0.0

[[record]]
molecule = "C[C@H](Br)C(=O)NCc1ccccc1"
label_class = 1.0

[[record]]
molecule = "CC(=O)O[C@@H]1[C@H](OC(C)=O)COC(Nc2ccc([N+](=O)[O-])cc2)[C@@H]1OC(C)=O (some centres not stated)"
label_class = 1.0


We next turn to a different molecule, shown below.
Data request: Hey, what did the test say about COCC1O[C@@H](O[C@@H]2C(COC)OC(OC)C(OC)C2OC)C(OC)C(OC)C1OC (some centres not stated) ?
Data returned: 0.0
